# System: Fibroblast
# measurement.description: Multiplex assay against human fibroblast
# Format: toxicity, cell-based
# experimental.parameters: 12 h, 1 µM, compound concentration 1 uM, replicate 1
Hi! Could you tag entries with Population Mitotic Cells (%) below 30% as 1 (yes), and those at or above as 0 (no)? Much appreciated.

Take a look at these entries with their results.
CCN1CCN(Cc2ccc(Nc3ncc(F)c(-c4cc(F)c5nc(C)n(C(C)C)c5c4)n3)nc2)CC1.CS(=O)(=O)O = 1 (yes)
COc1ccc(-c2ccc3c(N4CCOCC4)nc(N4C[C@@H](C)O[C@@H](C)C4)nc3n2)cc1CO = 1 (yes)
O=C(Nc1ccc(Cl)cc1)Nc1cccc(-c2cccc(N3CCCC3)n2)c1 = 0 (no)
C=C1/C(=C\C=C2/CCC[C@]3(C)[C@@H]([C@H](C)/C=C/[C@H](C)C(C)C)CC[C@@H]23)C[C@@H](O)C[C@@H]1O = 0 (no)
COC(=N)c1nc2ccc3ncnc(Nc4ccc(OC)cc4F)c3c2s1 = 0 (no)
COc1cc2ncnc(Nc3ccc(F)c(Cl)c3)c2cc1NC(=O)/C=C/CN1CCCCC1 [DACOMITINIB ANHYDROUS] = 1 (yes)

### Prompt Would you kindly verify if Population Mitotic Cells (%) of COc1ccc(S(=O)(=O)N(CCO)c2ccccc2CN(C)C/C=C/c2ccc(Cl)cc2)cc1.O=P(O)(O)O is strictly less than 30%?
### Response 1 (yes)

### Prompt Subsequent entry: Cl.Oc1ccc2c3c1O[C@H]1c4[nH]c5c(c4C[C@@]4(O)[C@@H](C2)N(CC2CC2)CC[C@]314)C[C@@]1(O)[C@H]2Cc3ccc(O)c4c3[C@@]1(CCN2CC1CC1)[C@H]5O4
### Response 1 (yes)

### Prompt Subsequent entry: CN1CCC(=C2c3ccccc3CC(=O)c3sccc32)CC1.O=C(O)/C=C/C(=O)O [KETOTIFEN FUMARATE]
### Response 0 (no)

### Prompt Subsequent entry: CNc1cc(Oc2cc(C(=O)Nc3cc(N4CCN(C)CC4)cc(C(F)(F)F)c3)ccc2C)ncn1
### Response 0 (no)

### Prompt Subsequent entry: O=C(Nc1ccc(-n2nc(-c3cccnc3)cc2C(F)(F)F)cn1)c1ccc(-c2ccccc2)c(F)c1
### Response 0 (no)

### Prompt Subsequent entry: CCn1cc(-c2ccnc3[nH]c(-c4cccc(CN(C)C)c4)cc23)c(-c2ccc(NC(=O)N(C)C)cc2)n1
### Response 1 (yes)

### Prompt Subsequent entry: O=C1N/C(=N/c2ccccc2F)S/C1=C\c1ccc(C(=O)O)cc1
### Response 0 (no)

### Prompt Subsequent entry: COc1cccc2cc(-c3nc([C@H]4CC[C@H](C(=O)O)CC4)n4ncnc(N)c34)[nH]c12
### Response 0 (no)

### Prompt Subsequent entry: O=C(Nc1ccc(-c2ccnc(Nc3ccc(N4CCOCC4)cc3)n2)cc1)[C@@H]1CCCN1
### Response 0 (no)

### Prompt Subsequent entry: Cc1cc(C)c(S(=O)(=O)N(Cc2ccc(-c3cccc(S(C)(=O)=O)c3)cc2)Cc2ccc(C(F)(F)F)o2)c(C)c1
### Response 0 (no)

### Prompt Subsequent entry: Cc1cn(-c2cc(NC(=O)c3ccc(C)c(Nc4nccc(-c5cccnc5)n4)c3)cc(C(F)(F)F)c2)cn1
### Response 0 (no)

### Prompt Subsequent entry: O=C(Cc1ccc(-c2ccc(OCCN3CCOCC3)cc2)cn1)NCc1ccccc1
### Response 1 (yes)

### Prompt Subsequent entry: Cl.O=c1c2cccn2c2ccccc2n1CCCN1CCC(c2ccc(Cl)cc2)CC1
### Response 0 (no)

### Prompt Subsequent entry: CCOc1cc2ncc(C#N)c(Nc3ccc(OCc4ccccn4)c(Cl)c3)c2cc1NC(=O)/C=C/CN(C)C
### Response 0 (no)

### Prompt Subsequent entry: Cl.O=C(c1ccc(Nc2nccc(-c3cc4ccccc4s3)n2)cc1)N1CCC(N2CCCC2)CC1
### Response 1 (yes)

### Prompt Subsequent entry: Cc1ccc2nc(NCCN)c3ncc(C)n3c2c1.O=C(O)C(F)(F)F.O=C(O)C(F)(F)F
### Response 1 (yes)

### Prompt Subsequent entry: CCCS(=O)(=O)c1nc(NC2CC2)cc(-c2ccc3c(ccn3C3CC(C)(C)NC(C)(C)C3)c2)n1
### Response 0 (no)

### Prompt Subsequent entry: CCCn1c(=O)c2[nH]c(-c3cnn(Cc4cccc(C(F)(F)F)c4)c3)nc2n(CC)c1=O
### Response 0 (no)

### Prompt Subsequent entry: CN1CCN(C(=O)C(C)(C)c2ccc(C(=O)Nc3cn4cc(-c5cc(C(C)(C)C)cc(C(C)(C)C)c5)ccc4n3)cc2)CC1
### Response 1 (yes)

### Prompt Subsequent entry: CN[C@@H]1C[C@H]2O[C@@](C)([C@@H]1OC)n1c3ccccc3c3c4c(c5c6ccccc6n2c5c31)C(=O)NC4
### Response 1 (yes)

### Prompt Subsequent entry: CN(C)C(=O)C(CCN1CCC(O)(c2ccc(Cl)cc2)CC1)(c1ccccc1)c1ccccc1.Cl [LOPERAMIDE HYDROCHLORIDE]
### Response 0 (no)

### Prompt Subsequent entry: CCNc1cc(N[C@H]2CC[C@H](O)CC2)nc(Nc2ccc3c(ccn3Cc3ccccc3)c2)n1
### Response 1 (yes)

Recorded values, source ChEMBL document CHEMBL4689842.
